# testedSystem: Bsep (bile salt export pump) (Mus musculus)
# Sequence (Q9QY30 whole entry): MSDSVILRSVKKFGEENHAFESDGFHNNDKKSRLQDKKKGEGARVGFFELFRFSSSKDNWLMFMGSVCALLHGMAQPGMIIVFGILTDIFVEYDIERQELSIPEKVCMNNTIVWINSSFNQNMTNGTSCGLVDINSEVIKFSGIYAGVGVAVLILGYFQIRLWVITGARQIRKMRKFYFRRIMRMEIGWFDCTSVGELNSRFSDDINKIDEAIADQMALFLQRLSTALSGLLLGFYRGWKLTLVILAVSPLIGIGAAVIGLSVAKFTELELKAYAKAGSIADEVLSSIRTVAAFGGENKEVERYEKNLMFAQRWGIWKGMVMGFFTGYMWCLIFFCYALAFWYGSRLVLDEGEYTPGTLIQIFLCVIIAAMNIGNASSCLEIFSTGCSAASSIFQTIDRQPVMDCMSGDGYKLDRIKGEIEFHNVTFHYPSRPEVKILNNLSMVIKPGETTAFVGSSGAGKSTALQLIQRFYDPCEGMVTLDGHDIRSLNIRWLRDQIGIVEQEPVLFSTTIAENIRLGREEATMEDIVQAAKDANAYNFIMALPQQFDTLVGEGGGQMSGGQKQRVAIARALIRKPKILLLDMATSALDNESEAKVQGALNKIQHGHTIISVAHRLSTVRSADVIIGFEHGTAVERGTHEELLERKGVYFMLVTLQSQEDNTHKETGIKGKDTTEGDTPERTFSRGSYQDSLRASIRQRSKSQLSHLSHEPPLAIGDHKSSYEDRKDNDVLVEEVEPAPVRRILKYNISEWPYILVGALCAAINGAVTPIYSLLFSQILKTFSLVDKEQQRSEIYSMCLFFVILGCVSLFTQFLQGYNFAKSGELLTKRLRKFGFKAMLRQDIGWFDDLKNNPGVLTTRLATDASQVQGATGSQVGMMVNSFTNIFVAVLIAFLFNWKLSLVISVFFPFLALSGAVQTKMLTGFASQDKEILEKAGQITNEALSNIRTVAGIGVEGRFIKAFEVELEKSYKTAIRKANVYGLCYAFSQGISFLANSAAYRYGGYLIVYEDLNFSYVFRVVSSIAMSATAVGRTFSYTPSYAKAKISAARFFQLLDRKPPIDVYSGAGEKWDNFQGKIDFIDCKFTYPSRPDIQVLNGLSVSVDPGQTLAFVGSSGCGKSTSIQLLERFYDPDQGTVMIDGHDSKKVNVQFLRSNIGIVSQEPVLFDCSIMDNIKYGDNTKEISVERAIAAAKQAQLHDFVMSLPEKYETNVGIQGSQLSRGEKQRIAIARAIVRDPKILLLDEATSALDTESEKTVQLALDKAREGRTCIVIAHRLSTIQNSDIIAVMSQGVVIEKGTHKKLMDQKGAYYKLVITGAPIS
# procedureText: TP_TRANSPORTER: inhibition of Taurocholate uptake (Taurochorate: 5 uM, CDCA: 50 uM) in membrane vesicles isolated from Bsep-expressing Balb-3T3 cells
# Format: functional, cell membranes, Membrane vesicle
# Set-up: scale not given: the % may be the effect or the level left
# assayConditions: probe taurocholate, read-out: Activity
measuredProperty: activity at 50 µM (%)
State the answer as a number, implicitly in %.

Problem: If you can, please state the reported activity at 50 µM value of C[C@H](CCC(=O)O)[C@H]1CC[C@H]2[C@@H]3[C@H](O)C[C@@H]4C[C@H](O)CC[C@]4(C)[C@H]3CC[C@]12C .
Solution: 11
